Each recorded value in this set is attributed to patent US20260232827A1.

# assay overview: Thermal stability by differential scanning calorimetry (DSC)
# Format: physicochemical
# applied conditions: 0.4 mg/mL in PBS
parameter measured: Fab Tm (°C)
The reply should be a number in °C, with the unit left off.

Q: For v29458: "Representative humanized antibody variants ... of the mouse antibody" that specifically binds hNaPi2b (antibody, V domains shown, v29450, v29454, v29458 H3; v29457, v29458, v29459, v29460 L1) VH: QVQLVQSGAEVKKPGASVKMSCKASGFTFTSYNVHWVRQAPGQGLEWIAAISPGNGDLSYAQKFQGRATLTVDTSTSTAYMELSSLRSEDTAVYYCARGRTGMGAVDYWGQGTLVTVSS VL: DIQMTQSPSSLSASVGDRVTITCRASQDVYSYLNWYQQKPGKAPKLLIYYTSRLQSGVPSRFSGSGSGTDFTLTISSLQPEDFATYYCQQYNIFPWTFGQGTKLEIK , what is its reported Fab Tm?
Result: 81.6
